Please respond with reported pIC50 for every item in the list.
target: KRAS WT (Homo sapiens (Human), UniProt P01116); experiment: KRAS WT Biochemical Assay, BODIPY-GDP Exchange TR-FRET (Example 501; 3 nM KRAS WT, 3 nM SOS1, 60-minute incubation); settings: read-out: KRas HTRF IC50
Sequence (P01116-2 other isoform, or with tags, fused parts or gaps): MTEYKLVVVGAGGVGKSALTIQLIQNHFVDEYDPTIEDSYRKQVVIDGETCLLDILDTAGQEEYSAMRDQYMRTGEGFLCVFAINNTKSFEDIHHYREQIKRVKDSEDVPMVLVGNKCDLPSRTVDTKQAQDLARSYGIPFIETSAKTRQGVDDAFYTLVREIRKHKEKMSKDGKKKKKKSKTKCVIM
Just so you know, pIC50 here is -log10 of the concentration in molar units; reply with that number alone.

Note to self: pIC50 recorded for Cc1nc(N)cc(-c2nc3c4c(nc(OCC5(CN6CC7COCC(C6)C7(F)F)CC5)nc4c2F)N2C[C@H]4CC[C@H](N4)[C@H]2[C@H](C)O3)c1C(F)(F)F was 5.96

Note to self: pIC50 recorded for Cc1nc(N)cc(-c2nc3c4c(nc(OCC5(CN6C[C@H]7C[C@@H]6CO7)CC5)nc4c2F)N2C[C@H]4CC[C@H](N4)[C@H]2[C@H](C)O3)c1C(F)(F)F was 7.73

Note to self: pIC50 recorded for Cc1nc(N)c(Cl)c(-c2nc3c4c(nc(OC[C@@]56CCCN5C[C@H](F)C6)nc4c2F)N2C[C@H]4CC[C@H](N4)[C@H]2[C@H](C)O3)c1C(F)(F)F was 7.22

Note to self: pIC50 recorded for Cc1nc(N)c(C)c(-c2nc3c4c(nc(OC[C@@]56CCCN5C[C@H](F)C6)nc4c2F)N2C[C@H]4CC[C@H](N4)[C@H]2[C@H](C)O3)c1C(F)(F)F was 7.07

Note to self: pIC50 recorded for Cc1nc(N)cc(-c2nc3c4c(nc(OC[C@@H]5CC[C@H]6COCCN65)nc4c2F)N2C[C@H]4CC[C@H](N4)[C@H]2[C@H](C(F)(F)F)O3)c1C(F)(F)F was 7.43

Note to self: pIC50 recorded for Cc1nc(N)cc(-c2nc3c4c(nc(OCC5(CN6CC7CCC(C6)O7)CC5)nc4c2F)N2C[C@H]4CC[C@H](N4)[C@H]2[C@H](C)O3)c1C(F)(F)F was 7.37

Note to self: pIC50 recorded for C[C@@H]1Oc2nc(N(C)c3ccc(F)c(N)c3)c(F)c3nc(OC[C@@]45CCCN4C[C@H](F)C5)nc(c23)N2C[C@H]3CC[C@H](N3)[C@@H]12 was 3.89

Note to self: pIC50 recorded for Cc1nc(N)cc(-c2nc3c4c(nc(OCC56C[C@@H](F)CN5C[C@H](F)C6)nc4c2F)N2C[C@H]4CC[C@H](N4)[C@H]2[C@H](C(F)(F)F)O3)c1C(F)(F)F was 7.01

Note to self: pIC50 recorded for Cc1nc(N)cc(-c2nc3c4c(nc(OCC5N(C)CC56CC6(F)F)nc4c2F)N2C[C@H]4CC[C@H](N4)[C@H]2[C@H](C(F)(F)F)O3)c1C(F)(F)F (single isomer, unassigned) [262 (isomer 4)] was 7.45

Note to self: pIC50 recorded for Cc1nc(N)cc(-c2nc3c4c(nc(OC[C@]56CCN5CC(F)(F)C6)nc4c2F)N2C[C@H]4CC[C@H](N4)[C@H]2[C@H](C(F)(F)F)O3)c1C(F)(F)F (single isomer, unassigned) [252 (isomer 2)] was 6.80

Note to self: pIC50 recorded for Cc1nc(N)cc(-c2nc3c4c(nc(OCC5(CN6C[C@@H](C)O[C@@H](C)C6)CC5)nc4c2F)N2C[C@H]4CC[C@H](N4)[C@H]2[C@H](C)O3)c1C(F)(F)F was 7.85

Note to self: pIC50 recorded for Cc1nc(N)cc(-c2nc3c4c(nc(OCC5(CN6CC(C(F)F)C6)CC5)nc4c2F)N2C[C@H]4CC[C@H](N4)[C@H]2[C@H](C)O3)c1C(F)(F)F was 7.59

Note to self: pIC50 recorded for Cc1c(F)c(N)cc(-c2nc3c4c(nc(OCC56CCN5CC(F)(F)C6)nc4c2F)N2C[C@H]4CC[C@H](N4)[C@H]2[C@H](C(F)(F)F)O3)c1C(F)(F)F (single isomer, unassigned) [263 (diast. 2)] was 7.81

Note to self: pIC50 recorded for Cc1c(F)c(N)c(F)c(-c2nc3c4c(nc(OC[C@@]56CCCN5C[C@H](F)C6)nc4c2F)N2C[C@H]4CC[C@H](N4)[C@H]2[C@H](C)O3)c1Cl was 6.97

Note to self: pIC50 recorded for Cc1c(F)c(N)cc(-c2nc3c4c(nc(OC[C@@]56CCN5CC(F)(F)C6)nc4c2F)N2C[C@H]4CC[C@H](N4)[C@H]2[C@H](C(F)(F)F)O3)c1C(F)(F)F (single isomer, unassigned) [263 (diast. 1)] was 8.26

Note to self: pIC50 recorded for COC1(C)CN(CC2(COc3nc4c5c(nc(-c6cc(N)nc(C)c6C(F)(F)F)c(F)c5n3)O[C@@H](C)[C@@H]3[C@@H]5CC[C@H](CN43)N5)CC2)C1 was 7.77

Note to self: pIC50 recorded for Cc1nc(N)c(F)c(-c2nc3c4c(nc(OCC5(CN6C[C@H]7C[C@@H]6CO7)CC5)nc4c2F)N2C[C@H]4CC[C@H](N4)[C@H]2[C@H](C)O3)c1C(F)(F)F was 7.29

Note to self: pIC50 recorded for Cc1c(F)c(N)cc(-c2nc3c4c(nc(OC[C@@]56CCCN5C[C@H](F)C6)nc4c2F)N2CCN[C@H](C)[C@@H]2[C@H](C)O3)c1C(F)(F)F (single isomer, unassigned) [234 (isomer 3)] was 5.34

Note to self: pIC50 recorded for Cc1nc(N)cc(-c2nc3c4c(nc(OC[C@H]5N(C)C[C@]56CC6(F)F)nc4c2F)N2C[C@H]4CC[C@H](N4)[C@H]2[C@H](C(F)(F)F)O3)c1C(F)(F)F (single isomer, unassigned) [262 (isomer 1)] was 6.18

Note to self: pIC50 recorded for COCC1(F)CCN(CC2(COc3nc4c5c(nc(-c6cc(N)nc(C)c6C(F)(F)F)c(F)c5n3)O[C@@H](C)[C@@H]3[C@@H]5CC[C@H](CN43)N5)CC2)C1 (some centres unmarked) was 7.97
